test: Plasma protein binding, dog plasma; assay type: in vitro ADME; details: comparison compounds from WO2017/070024, read-out: Dog fu
The reader will find reported fraction unbound at 4 h, 2.5 uM values listed item by item below.
readout_kind: fraction unbound at 4 h, 2.5 uM

INSERT INTO results (line_notation, readout_kind, reported_measurement) VALUES
  ('NC[C@H]1CN(c2cc(F)c(N3CCOCC3)c(F)c2)C(=O)O1', 'fraction unbound at 4 h, 2.5 uM', 0.81),
  ('NC[C@H]1CN(c2cnc(N3CCS(=O)(=O)CC3)c(F)c2)C(=O)O1', 'fraction unbound at 4 h, 2.5 uM', 0.87);
